- Tested target: 20S Proteasome (Oryctolagus cuniculus, UniProt G1T4Q9)
- Sequence (G1T4Q9 1-263): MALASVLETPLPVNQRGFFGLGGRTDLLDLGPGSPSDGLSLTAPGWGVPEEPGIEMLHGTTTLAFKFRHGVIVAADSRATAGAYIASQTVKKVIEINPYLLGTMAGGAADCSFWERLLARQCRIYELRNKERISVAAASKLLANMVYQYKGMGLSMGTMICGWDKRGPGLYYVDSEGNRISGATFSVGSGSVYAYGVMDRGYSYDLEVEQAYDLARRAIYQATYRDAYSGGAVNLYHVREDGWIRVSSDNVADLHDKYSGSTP
- Assay procedure: Inhibition of the 20S proteasome (kinetic experiments, Ki)
- Assay type: biochemical, Rabbit
- Design: Ki 20 S; substrate Suc-LLVY-AMC
- Stated conditions: Rabbit muscle, SDS-activated; substrate Suc-LLVY-AMC
pKi: −log10 of the molar value. Residues, ends and D or L forms follow the SMILES beside them. *: point of attachment. Cbz = O=C(OCc1ccccc1)*
Metric name: pKi

P. CC(C)C[C@H](NC(=O)OCc1ccccc1)C(=O)N[C@@H](CC(C)C)C(=O)N[C@H](C=O)C(C)C [MG 120] (Cbz-Leu-Leu-Val-aldehyde)
Q. CCCC[C@@H](C=O)NC(=O)[C@H](CC(C)C)NC(=O)OCc1ccccc1 [MG 105, Z-Leu-Nle-H, reference compound]
R. COC(=O)C(=O)[C@H](Cc1ccccc1)NC(=O)[C@H](CC(C)C)NC(=O)[C@H](CC(C)C)NC(=O)OCc1ccccc1 [MG 113, Z-Leu-Leu-Phe-C(O)—OMe]
Ask | Ascending sort, pKi. Your answer should be the labels, listed in the requested order.
Reply | Q, R, P
(Q: 4.82, R: 6.16, P: 7.03)

###

Sequence of the target: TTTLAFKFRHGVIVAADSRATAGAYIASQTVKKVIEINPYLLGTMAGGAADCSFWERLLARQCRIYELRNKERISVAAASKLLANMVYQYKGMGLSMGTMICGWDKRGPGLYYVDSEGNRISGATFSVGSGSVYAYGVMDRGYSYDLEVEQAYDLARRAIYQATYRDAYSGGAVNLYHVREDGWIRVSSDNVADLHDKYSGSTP
pKi: −log10 of the molar value. Non-standard residues stand in square brackets, D forms with d. Residues, ends and D or L forms follow the SMILES beside them. ξ: configuration not given here. *: point of attachment. 1Nal = N[C@@H](Cc1cccc2ccccc12)C(=O)O; Ile(3ξ) = CCC(C)[C@H](N)C(=O)O; Cbz = O=C(OCc1ccccc1)*; Boc = CC(C)(C)OC(=O)*
Metric name: pKi

P. CCC(C)[C@@H](C=O)NC(=O)[C@H](CC(C)C)NC(=O)[C@H](CC(C)C)NC(=O)OCc1ccccc1 (stereo partly drawn) [MG 134] (Cbz-Leu-Leu-[Ile(3ξ)]-aldehyde)
Q. CC(C)C[C@@H](C=O)NC(=O)[C@H](CC(C)C)NC(=O)[C@H](CC(C)C)NC(=O)OC(C)(C)C [MG 155] (Boc-Leu-Leu-Leu-aldehyde)
R. CC(C)C[C@@H](C=O)NC(=O)[C@H](CC(C)C)NC(=O)[C@H](Cc1cccc2ccccc12)NC(=O)OCc1ccccc1 [MG 150] (Cbz-[1Nal]-Leu-Leu-aldehyde)
Ask | # sort list by recorded pKi, greatest to least Your answer should be the labels, listed in the requested order.
Reply | R, Q, P

###

- Tested target: calpain, 80 kD catalytic subunit
- Assay procedure: Inhibition of calpain (Ki)
- Stated conditions: Rabbit muscle, substrate Suc-LLVY-AMC, [CaCl2] = 1 mM, [DTT] = 2 mM, pH 7.8, 20° C.
Non-standard residues stand in square brackets, D forms with d. Residues, ends and D or L forms follow the SMILES beside them. *: point of attachment. 2Nal = N[C@@H](Cc1ccc2ccccc2c1)C(=O)O; Nle = CCCC[C@H](N)C(=O)O; Nva = CCC[C@H](N)C(=O)O; Cbz = O=C(OCc1ccccc1)*
Metric name: Ki (nM)

Look over these answered cases.
- Molecule: "CC(C)C[C@H](NC(=O)OCc1ccccc1)C(=O)N[C@@H](CC(C)C)C(=O)NCC=O [MG 118] (Cbz-Leu-Leu-Gly-aldehyde)"
  Result value: 120
- Molecule: "CC(C)C[C@H](NC(=O)OCc1ccccc1)C(=O)N[C@@H](CC(C)C)C(=O)N[C@H](C=O)Cc1ccc2ccccc2c1 [MG 121, Z-Leu-Leu-Nal-H] (Cbz-Leu-Leu-[2Nal]-aldehyde)"
  Result value: 62
- Molecule: "CCCC[C@@H](C=O)NC(=O)[C@H](CC(C)C)NC(=O)[C@H](CC(C)C)NC(=O)OCc1ccccc1 [MG 114, Z-Leu-Leu-Nle-H] (Cbz-Leu-Leu-[Nle]-aldehyde)"
  Result value: 12

a. CCC[C@@H](C=O)NC(=O)[C@H](CC(C)C)NC(=O)[C@H](CC(C)C)NC(=O)OCc1ccccc1 [MG 115, Z-Leu-Leu-Nva-H] (Cbz-Leu-Leu-[Nva]-aldehyde)
b. COC(=O)C(=O)[C@H](Cc1ccccc1)NC(=O)[C@H](CC(C)C)NC(=O)[C@H](CC(C)C)NC(=O)OCc1ccccc1
Ask | From the items above, decide which of a and b has the lower Ki reading. Provide the label of your selected option as the answer.
Reply | a

###

- Tested target: 20S Proteasome (Oryctolagus cuniculus)
- Assay procedure: Inhibition of the 20S proteasome (kinetic experiments, Ki)
- Format: biochemical, Rabbit
- Set-up: Ki 20 S; substrate Suc-LLVY-AMC
- Stated conditions: Rabbit muscle, SDS-activated; substrate Suc-LLVY-AMC
pKi: −log10 of the molar value. Non-standard residues stand in square brackets, D forms with d. Residues, ends and D or L forms follow the SMILES beside them. *: point of attachment. 2Nal = N[C@@H](Cc1ccc2ccccc2c1)C(=O)O; Nva = CCC[C@H](N)C(=O)O; Abu = CC[C@H](N)C(=O)O; Cbz = O=C(OCc1ccccc1)*
Metric name: pKi

a. CC(C)C[C@H](NC(=O)OCc1ccccc1)C(=O)N[C@@H](CC(C)C)C(=O)N[C@H](C=O)Cc1ccc2ccccc2c1 [MG 121, Z-Leu-Leu-Nal-H] (Cbz-Leu-Leu-[2Nal]-aldehyde)
b. CC[C@@H](C=O)NC(=O)[C@H](CC(C)C)NC(=O)[C@H](CC(C)C)NC(=O)OCc1ccccc1 [MG 119] (Cbz-Leu-Leu-[Abu]-aldehyde)
Ask | Parameter check: reported pKi is higher for which label, a or b ? Provide the label of your selected option as the answer.
Reply | a
(a: 7.60, b: 7.30)

1. CCC[C@@H](C=O)NC(=O)[C@H](CC(C)C)NC(=O)[C@H](CC(C)C)NC(=O)OCc1ccccc1 [MG 115, Z-Leu-Leu-Nva-H] (Cbz-Leu-Leu-[Nva]-aldehyde)
2. CC(C)C[C@H](NC(=O)OCc1ccccc1)C(=O)N[C@@H](CC(C)C)C(=O)NCC=O [MG 118] (Cbz-Leu-Leu-Gly-aldehyde)
Ask | Parameter check: reported pKi is higher for which label, 1 or 2 ? Provide the label of your selected option as the answer.
Reply | 1

###

- Tested target: cathepsin B (Bos taurus, UniProt P07688)
pKi: −log10 of the molar value. Non-standard residues stand in square brackets, D forms with d. Residues, ends and D or L forms follow the SMILES beside them. *: point of attachment. Nle = CCCC[C@H](N)C(=O)O; Nva = CCC[C@H](N)C(=O)O; Abu = CC[C@H](N)C(=O)O; Cbz = O=C(OCc1ccccc1)*
Metric name: pKi

- Compound: "CCCC[C@@H](C=O)NC(=O)[C@H](CC(C)C)NC(=O)[C@H](CC(C)C)NC(C)=O [MG 101, Ac-Leu-Leu-Nle-H] (Ac-Leu-Leu-[Nle]-aldehyde)"
  pKi: 8.22

1. CC[C@@H](C=O)NC(=O)[C@H](CC(C)C)NC(=O)[C@H](CC(C)C)NC(=O)OCc1ccccc1 [MG 119] (Cbz-Leu-Leu-[Abu]-aldehyde)
2. CCC[C@@H](C=O)NC(=O)[C@H](CC(C)C)NC(=O)[C@H](CC(C)C)NC(=O)OCc1ccccc1 [MG 115, Z-Leu-Leu-Nva-H] (Cbz-Leu-Leu-[Nva]-aldehyde)
Ask | Parameter check: reported pKi is higher for which label, 1 or 2 ? Provide the label of your selected option as the answer.
Reply | 2

###

- Tested target: 20S proteasome (Oryctolagus cuniculus, UniProt G1T4Q9)
Non-standard residues stand in square brackets, D forms with d. Residues, ends and D or L forms follow the SMILES beside them. *: point of attachment. 1Nal = N[C@@H](Cc1cccc2ccccc12)C(=O)O; 2Nal = N[C@@H](Cc1ccc2ccccc2c1)C(=O)O; hPhe = N[C@@H](CCc1ccccc1)C(=O)O; Cbz = O=C(OCc1ccccc1)*
Metric name: Ki (nM)

- Compound: "CC(C)C[C@H](NC(=O)OCc1ccccc1)C(=O)N[C@@H](CC(C)C)C(=O)N[C@H](C=O)Cc1ccc(O)cc1 [MG 131] (Cbz-Leu-Leu-Tyr-aldehyde)"
  Ki / nM: 6

1. CC(C)C[C@H](NC(=O)OCc1ccccc1)C(=O)N[C@@H](CC(C)C)C(=O)N[C@H](C=O)CCc1ccccc1 [MG 124] (Cbz-Leu-Leu-[hPhe]-aldehyde)
2. CC(C)C[C@@H](C=O)NC(=O)[C@H](Cc1cccc2ccccc12)NC(=O)[C@H](Cc1cccc2ccccc12)NC(=O)OCc1ccccc1 [MG 166] (Cbz-[1Nal]-[1Nal]-Leu-aldehyde)
Ask | From the items above, decide which of 1 and 2 has the lower Ki reading. Provide the label of your selected option as the answer.
Reply | 2
(2: 0.035 nM, 1: 59 nM)

1. CC(C)C[C@@H](C=O)NC(=O)[C@H](CC(C)C)NC(=O)[C@H](Cc1ccc2ccccc2c1)NC(=O)OCc1ccccc1 [MG 165] (Cbz-[2Nal]-Leu-Leu-aldehyde)
2. CC(C)C[C@@H](C=O)NC(=O)[C@H](C)NC(=O)[C@H](Cc1cccc2ccccc12)NC(=O)OCc1ccccc1 [MG 168] (Cbz-[1Nal]-Ala-Leu-aldehyde)
Ask | Parameter check: reported Ki is higher for which label, 1 or 2 ? Provide the label of your selected option as the answer.
Reply | 2
(2: 0.49 nM, 1: 0.24 nM)
